protocol_details: Tmax in nude mouse brain at 5 mg/kg, po after 24 hrs
Format: ADME, organism-based
Design: dose 5 mg/kg, route oral
property_label: Tmax (min)

query_smiles | property_label | readout_unit | reported
CC(C)(O)c1ccc(N2CCN(c3nnc(Cc4ccccc4)c4ccccc34)CC2)nc1 | Tmax | min | 15

---

protocol_details: Clearance in nude mouse plasma at 1 mg/kg, iv after 24 hrs
Format: ADME, organism-based
Parameters: dose 1 mg/kg, route intravenous
property_label: clearance (mL/min/kg)

query_smiles | readout_unit | reported
CC(C)(O)c1ccc(N2CCN(c3nnc(Cc4ccccc4)c4ccccc34)CC2)nc1 | mL/min/kg | 5.24

---

protocol_details: Half life in nude mouse plasma at 1 mg/kg, iv after 24 hrs
Assay type: ADME, organism-based
Parameters: dose 1 mg/kg, route intravenous
property_label: half-life

query_smiles | reported
CC(C)(O)c1ccc(N2CCN(c3nnc(Cc4ccccc4)c4ccccc34)CC2)nc1 | 31.8 min

---

protocol_details: Cmax in nude mouse brain at 5 mg/kg, po after 24 hrs
Assay type: ADME, organism-based
Set-up: dose 5 mg/kg, route oral
property_label: Cmax

query_smiles | reported
CC(C)(O)c1ccc(N2CCN(c3nnc(Cc4ccccc4)c4ccccc34)CC2)nc1 | 2390 nM

---

Below: a set of entries, each annotated with reported pIC50.
target_under_test: Protein smoothened (Mus musculus, UniProt P56726)
Sequence (P56726 whole entry): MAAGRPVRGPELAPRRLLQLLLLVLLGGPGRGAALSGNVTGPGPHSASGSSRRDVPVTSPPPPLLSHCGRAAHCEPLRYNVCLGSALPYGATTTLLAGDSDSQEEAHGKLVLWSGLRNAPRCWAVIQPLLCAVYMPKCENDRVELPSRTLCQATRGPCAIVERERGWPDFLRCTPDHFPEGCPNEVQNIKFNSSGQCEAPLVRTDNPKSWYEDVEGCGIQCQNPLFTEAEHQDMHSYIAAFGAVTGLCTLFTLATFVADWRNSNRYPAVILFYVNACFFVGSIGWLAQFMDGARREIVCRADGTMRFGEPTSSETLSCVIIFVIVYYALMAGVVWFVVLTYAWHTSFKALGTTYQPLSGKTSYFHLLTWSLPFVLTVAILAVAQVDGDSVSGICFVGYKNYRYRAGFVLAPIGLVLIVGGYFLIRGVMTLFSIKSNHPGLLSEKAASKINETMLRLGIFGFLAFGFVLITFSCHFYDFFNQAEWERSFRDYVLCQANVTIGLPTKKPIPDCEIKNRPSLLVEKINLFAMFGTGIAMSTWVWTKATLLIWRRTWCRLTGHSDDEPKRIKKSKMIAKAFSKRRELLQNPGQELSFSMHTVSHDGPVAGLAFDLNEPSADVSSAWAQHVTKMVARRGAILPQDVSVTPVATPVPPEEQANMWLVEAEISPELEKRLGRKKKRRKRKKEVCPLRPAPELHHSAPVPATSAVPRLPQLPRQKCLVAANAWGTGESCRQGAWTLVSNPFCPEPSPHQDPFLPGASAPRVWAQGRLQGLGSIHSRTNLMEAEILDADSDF
Assay type: cell-based, TM3
Description: Inhibition of Smoothened receptor in mouse TM3 cells transfected with pTA-8xGli-Luc reporter gene assessed as inhibition of 25 nM 3-chloro-4,7-difluoro-N-(4-methoxy-3-(pyridin-4-yl)benzyl)-N-(4-(methylamino)cyclohexyl)benzo[b]thiophene-2-carboxamide-induced Hedgehog pathway activation by Gli shift assay
pIC50: −log10 of the molar value.

query_smiles | target_under_test | relation_operator | pIC50
COC(=O)c1ccc(Cc2nnc(N3CCN(c4ccc(C#N)cn4)CC3)c3ccccc23)cc1 | Protein smoothened (Mus musculus, UniProt P56726) | < | 5.30
N#Cc1ccc(N2CCN(c3nnc(Cc4ccc(F)cc4)c4ccccc34)CC2)nc1 | Protein smoothened (Mus musculus, UniProt P56726) | = | 6.01
C[C@H]1CN(c2nnc(Cc3ccccc3)c3ccccc23)CCN1c1ccc(C#N)cn1 | Protein smoothened (Mus musculus, UniProt P56726) | = | 6.13
O=C(O)c1ccc(N2CCN(c3nnc(Cc4ccccc4)c4ccccc34)CC2)nc1 | Protein smoothened (Mus musculus, UniProt P56726) | < | 5.30
c1ccc(Cc2nnc(N3CCN(c4ccccn4)CC3)c3ccccc23)cc1 | Protein smoothened (Mus musculus, UniProt P56726) | = | 6.11

---

protocol_details: Oral bioavailability in nude mouse plasma at 5 mg/kg after 24 hrs
Format: ADME, organism-based

query_smiles | bioavailability, %
CC(C)(O)c1ccc(N2CCN(c3nnc(Cc4ccccc4)c4ccccc34)CC2)nc1 | 73

---

Below: a set of entries, each annotated with reported pIC50.
target_under_test: Protein smoothened (Mus musculus, UniProt P56726)
protocol_details: Inhibition of Smoothened receptor in mouse TM3 cells transfected with pTA-8xGli-Luc reporter gene assessed as inhibition of 1 nM 3-chloro-4,7-difluoro-N-(4-methoxy-3-(pyridin-4-yl)benzyl)-N-(4-(methylamino)cyclohexyl)benzo[b]thiophene-2-carboxamide-induced Hedgehog pathway activation by Gli shift assay
Format: cell-based
pIC50: −log10 of the molar value.
property_label: pIC50

compound | relation_operator | reported
OCc1ccc(N2CCN(c3nnc(Cc4ccccc4)c4ccccc34)CC2)nc1 | = | 6.43
c1ccc(Cc2nnc(N3CCN(c4ccccc4)CC3)c3ccccc23)cc1 | = | 6.38
C[C@@H]1CN(c2ccc(C#N)cn2)CCN1c1nnc(Cc2ccccc2)c2ccccc12 | = | 7.07
NC(=O)c1ccc(N2CCN(c3nnc(Cc4ccccc4)c4ccccc34)CC2)nc1 | = | 7.34
N#Cc1ccc(C2CCN(c3nnc(Cc4ccccc4)c4ccccc34)CC2)cc1 | = | 5.42
N#Cc1ccc(N2CCN(c3nnc(Cc4ccc(F)cc4)c4ccccc34)CC2)nc1 | = | 6.95
C[C@@H]1CN(c2nnc(Cc3ccccc3)c3ccccc23)CCN1c1ccc(C#N)cn1 | = | 7.52
c1ccc(Cc2nnc(N3CCN(c4ccccn4)CC3)c3ccccc23)cc1 | = | 6.59
CC(C)(N)c1ccc(N2CCN(c3nnc(Cc4ccccc4)c4ccccc34)CC2)nc1 | = | 8.89
N#Cc1ccc(N2CCC(c3cn(Cc4ccccc4)c4ccccc34)CC2)nc1 | = | 6.42
N#Cc1ccc(N2CCN(c3nnc(Cc4ccc(C(=O)O)cc4)c4ccccc34)CC2)nc1 | < | 5.30
FC(F)(F)c1ccc(N2CCN(c3nnc(Cc4ccccc4)c4ccoc34)CC2)nc1 | = | 5.75
C[C@H]1CN(c2ccc(C#N)cn2)CCN1c1nnc(Cc2ccccc2)c2ccccc12 | = | 7.60
c1ccc(N2CCN(c3nnc(Cc4ccncc4)c4ccccc34)CC2)nc1 | = | 6.16
CN(C)Cc1ccc(N2CCN(c3nnc(Cc4ccccc4)c4ccccc34)CC2)nc1 | = | 7.85
FC(F)(F)c1ccc(N2CCN(c3nnc(Cc4ccccc4)c4ccccc34)CC2)nc1 | = | 6.87
CC(C)(O)c1ccc(N2CCN(c3nnc(Cc4ccccc4)c4ccccc34)CC2)nc1 | = | 8.57
CC(O)c1ccc(N2CCN(c3nnc(Cc4ccccc4)c4ccccc34)CC2)nc1 (stereo not given) | = | 7.42
COC(=O)c1ccc(Cc2nnc(N3CCN(c4ccc(C#N)cn4)CC3)c3ccccc23)cc1 | = | 6.58
OC1(c2ccc(N3CCN(c4nnc(Cc5ccccc5)c5ccccc45)CC3)nc2)CC1 | = | 7.26

---

target_under_test: Protein smoothened (Mus musculus)
protocol_details: Displacement of [3H]3-chloro-4,7-difluoro-N-(4-methoxy-3-(pyridin-4-yl)benzyl)-N-(4-(methylamino)cyclohexyl)benzo[b]thiophene-2-carboxamide from mouse Smoothened receptor expressed in CHO-K1 cells by membrane filter binding assay
Format: cell-based
pIC50: −log10 of the molar value.

compound | relation_operator | pIC50
N#Cc1ccc(N2CCN(c3cnc(Cc4ccccc4)c4ccccc34)CC2)nc1 | < | 5.30
N#Cc1ccc(N2CCN(c3nnc(Cc4ccc(C(=O)O)cc4)c4ccccc34)CC2)nc1 | < | 5.30
N#Cc1ccc(N2CCN(c3nnc(Cc4ccc(C(F)(F)F)cc4)c4ccccc34)CC2)nc1 | = | 6.65
CC(O)(CO)c1ccc(N2CCN(c3nnc(Cc4ccccc4)c4ccccc34)CC2)nc1 (racemic) | = | 7.55
FC(F)(F)c1ccc(N2CCN(c3nnc(Cc4ccccc4)c4ccccc34)CC2)nc1 | = | 7.13
C[C@@H]1CN(c2ccc(C#N)cn2)CCN1c1nnc(Cc2ccccc2)c2ccccc12 | = | 6.74
N#Cc1ccc(N2CCN(c3nnc(Cc4ccc(Cl)cc4)c4ccccc34)CC2)nc1 | = | 7.70
c1ccc(N2CCN(c3nnc(Cc4ccncc4)c4ccccc34)CC2)nc1 | = | 5.43
N#Cc1ccc(N2CCCN(c3nnc(Cc4ccccc4)c4ccccc34)CC2)nc1 | = | 6.82
CC(=O)NCc1ccc(N2CCN(c3nnc(Cc4ccccc4)c4ccccc34)CC2)nc1 | = | 7.02
C[C@H]1CN(c2nnc(Cc3ccccc3)c3ccccc23)CCN1c1ccc(C#N)cn1 | = | 7.18
N#Cc1ccc(C2CCN(c3nnc(Cc4ccccc4)c4ccccc34)CC2)cc1 | < | 5.30
FC(F)(F)c1ccc(N2CCN(c3nnc(Cc4ccccc4)c4[nH]cnc34)CC2)nc1 | < | 5.30

---

target_under_test: UniProtKB Q99835
Sequence (Q99835 whole entry): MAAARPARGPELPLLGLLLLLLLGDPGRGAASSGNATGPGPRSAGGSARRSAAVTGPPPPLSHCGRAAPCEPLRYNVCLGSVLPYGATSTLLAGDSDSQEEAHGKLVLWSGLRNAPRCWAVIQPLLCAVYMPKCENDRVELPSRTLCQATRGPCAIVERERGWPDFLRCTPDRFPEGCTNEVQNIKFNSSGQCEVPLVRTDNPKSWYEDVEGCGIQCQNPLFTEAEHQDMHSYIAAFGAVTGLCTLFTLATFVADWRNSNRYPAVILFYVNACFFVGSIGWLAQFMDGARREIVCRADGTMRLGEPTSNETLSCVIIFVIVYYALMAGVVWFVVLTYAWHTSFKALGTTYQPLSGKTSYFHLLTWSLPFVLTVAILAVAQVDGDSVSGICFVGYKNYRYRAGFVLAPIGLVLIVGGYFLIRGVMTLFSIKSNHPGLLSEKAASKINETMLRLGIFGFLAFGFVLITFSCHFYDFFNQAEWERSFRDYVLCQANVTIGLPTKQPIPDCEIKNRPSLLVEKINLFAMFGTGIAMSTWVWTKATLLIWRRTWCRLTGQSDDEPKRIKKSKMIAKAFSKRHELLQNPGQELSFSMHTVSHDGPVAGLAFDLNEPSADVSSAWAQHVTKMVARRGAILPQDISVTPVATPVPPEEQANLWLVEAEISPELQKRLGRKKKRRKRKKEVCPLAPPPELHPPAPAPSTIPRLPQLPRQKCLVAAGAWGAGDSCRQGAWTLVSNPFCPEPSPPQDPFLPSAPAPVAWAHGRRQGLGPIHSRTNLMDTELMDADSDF
protocol_details: Displacement of [3H]3-chloro-4,7-difluoro-N-(4-methoxy-3-(pyridin-4-yl)benzyl)-N-(4-(methylamino)cyclohexyl)benzo[b]thiophene-2-carboxamide from human Smoothened receptor expressed in CHO-K1 cells by membrane filter binding assay
Format: cell-based
pIC50: −log10 of the molar value.
Below: a set of entries, each annotated with reported pIC50.

query_smiles | pIC50
N#Cc1ccc(N2CCN(c3nnc(Cc4ccc(C(=O)O)cc4)c4ccccc34)CC2)nc1 | < 5.30
N#Cc1ccc(Cc2nnc(N3CCN(c4ccc(C#N)cn4)CC3)c3ccccc23)cc1 | 7.47
c1ccc(N2CCN(c3nnc(Cc4ccncc4)c4ccccc34)CC2)nc1 | < 5.30
N#Cc1ccc(C2CCN(c3nnc(Cc4ccccc4)c4ccccc34)CC2)cc1 | < 5.30
FC(F)(F)c1ccc(N2CCN(c3nnc(Cc4ccccc4)c4[nH]cnc34)CC2)nc1 | < 5.30
N#Cc1ccc(N2CCN(c3cnc(Cc4ccccc4)c4ccccc34)CC2)nc1 | < 5.30

---

target_under_test: Protein smoothened (Mus musculus)
Format: cell-based, TM3
Below: a set of entries, each annotated with reported IC50.

query_smiles | IC50
N#Cc1ccc(N2CCN(c3nnc(Cc4ccc(C(=O)O)cc4)c4ccccc34)CC2)nc1 | > 5000 nM
N#Cc1ccc(N2CCN(c3nnc(Cc4cccc(Cl)c4)c4ccccc34)CC2)nc1 | 693 nM
N#Cc1ccc(C2CCN(c3nnc(Cc4ccccc4)c4ccccc34)CC2)cc1 | > 5000 nM
